- procedure text: Cytotoxicity against african green monkey Vero cells after 72 hrs
- Format: cell-based
- cond: chlorocebus sabaeus
// reported CC50 at 72 h per item
Please answer using the number first and the unit second.

Sample answers from the record:
> print(dat)
                                smiles.repr  measured.result
1  COc1cc(OC)c(C(=O)/C=C/c2ccc(Cl)cc2)cc1OC           279 µM
2  COc1cc(OC)c(C(=O)/C=C/c2ccc(Cl)c(Cl)c2)cc1OC           906 µM
3  COc1cccc(/C=C/C(=O)c2cc(OC)c(OC)cc2OC)c1           295 µM

Ask: Return CC50 at 72 h for the following molecule: COc1cc(OC)c(C(=O)/C=C/c2cccc(Cl)c2)cc1OC
Reply: 382 µM

Ask: Return CC50 at 72 h for the following molecule: COc1cc(OC)c(C(=O)/C=C/c2ccccc2)cc1OC
Reply: 392 µM

Ask: Return CC50 at 72 h for the following molecule: COc1cc(O)c(C(=O)/C=C/c2cccc(Cl)c2)c(OC)c1
Reply: 341 µM
